Taken from patent US12581252B2.

target: H1047R PIK3CA enzyme (Homo sapiens, UniProt P42336, H1047R); experiment: ADP-Glo Biochemical PIK3CA Kinase Assay
Sequence (P42336 whole entry H1047R): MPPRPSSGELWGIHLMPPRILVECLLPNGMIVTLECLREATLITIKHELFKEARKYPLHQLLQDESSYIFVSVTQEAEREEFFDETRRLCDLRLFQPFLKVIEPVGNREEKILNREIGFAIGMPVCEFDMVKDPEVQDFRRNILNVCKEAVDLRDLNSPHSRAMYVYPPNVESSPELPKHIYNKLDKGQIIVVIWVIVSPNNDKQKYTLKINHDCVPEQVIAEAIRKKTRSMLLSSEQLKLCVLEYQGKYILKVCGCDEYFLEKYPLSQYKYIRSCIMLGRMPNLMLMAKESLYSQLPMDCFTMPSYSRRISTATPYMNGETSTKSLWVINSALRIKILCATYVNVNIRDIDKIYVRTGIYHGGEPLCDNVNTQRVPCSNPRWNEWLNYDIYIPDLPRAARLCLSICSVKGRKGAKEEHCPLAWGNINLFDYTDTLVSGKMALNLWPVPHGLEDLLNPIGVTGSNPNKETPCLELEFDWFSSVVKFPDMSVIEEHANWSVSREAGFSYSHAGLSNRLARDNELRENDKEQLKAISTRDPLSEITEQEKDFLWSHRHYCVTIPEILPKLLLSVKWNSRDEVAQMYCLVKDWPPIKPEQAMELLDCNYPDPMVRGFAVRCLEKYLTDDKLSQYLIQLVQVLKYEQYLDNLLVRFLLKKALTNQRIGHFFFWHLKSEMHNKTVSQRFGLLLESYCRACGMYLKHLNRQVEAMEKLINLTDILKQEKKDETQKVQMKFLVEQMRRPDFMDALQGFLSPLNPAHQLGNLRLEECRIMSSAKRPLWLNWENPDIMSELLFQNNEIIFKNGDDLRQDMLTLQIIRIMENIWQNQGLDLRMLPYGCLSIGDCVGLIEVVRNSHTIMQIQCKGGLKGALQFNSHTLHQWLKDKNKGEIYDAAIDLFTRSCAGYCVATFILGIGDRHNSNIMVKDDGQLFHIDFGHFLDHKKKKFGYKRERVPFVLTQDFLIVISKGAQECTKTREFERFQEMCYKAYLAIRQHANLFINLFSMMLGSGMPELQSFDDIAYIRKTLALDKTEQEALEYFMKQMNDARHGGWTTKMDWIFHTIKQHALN
Sequence (P27986 whole entry partner): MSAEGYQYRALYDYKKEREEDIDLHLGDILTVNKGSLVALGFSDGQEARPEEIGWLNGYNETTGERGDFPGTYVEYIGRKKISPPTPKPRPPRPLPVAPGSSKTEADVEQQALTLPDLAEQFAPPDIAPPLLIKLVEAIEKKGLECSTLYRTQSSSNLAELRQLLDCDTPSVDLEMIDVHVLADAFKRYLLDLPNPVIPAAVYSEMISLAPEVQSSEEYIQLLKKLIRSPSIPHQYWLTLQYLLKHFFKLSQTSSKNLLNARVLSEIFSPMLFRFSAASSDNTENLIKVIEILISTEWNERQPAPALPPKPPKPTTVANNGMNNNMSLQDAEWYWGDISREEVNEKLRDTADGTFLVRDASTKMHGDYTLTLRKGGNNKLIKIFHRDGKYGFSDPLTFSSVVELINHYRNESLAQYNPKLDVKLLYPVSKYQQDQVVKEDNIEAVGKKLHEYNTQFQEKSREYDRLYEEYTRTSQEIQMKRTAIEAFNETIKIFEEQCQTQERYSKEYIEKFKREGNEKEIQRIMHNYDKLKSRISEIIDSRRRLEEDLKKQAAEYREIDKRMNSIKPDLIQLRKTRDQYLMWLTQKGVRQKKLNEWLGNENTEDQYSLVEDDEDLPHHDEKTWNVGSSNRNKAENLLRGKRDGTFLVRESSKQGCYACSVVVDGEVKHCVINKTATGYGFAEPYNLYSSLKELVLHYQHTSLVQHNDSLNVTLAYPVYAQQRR
measured_metric: IC50

INSERT INTO measurements (compound, system_tested, measured_metric, assay_value) VALUES
  ('CC(C)(O)c1cc(NC(=O)c2cc(F)cc(C(F)(F)F)c2)c2c(c1)C(=O)NC2c1ccccc1Cl (stereo not shown) [Compound I-439]', 'H1047R PIK3CA enzyme (Homo sapiens, UniProt P42336, H1047R)', 'IC50', '100 to 500 nM'),
  ('O=C(Nc1cc(Br)cc2c1C(c1cc(F)ccc1Cl)NC2=O)c1cc(Cl)ccc1C(F)F (stereo not shown) [Compound I-911]', 'H1047R PIK3CA enzyme (Homo sapiens, UniProt P42336, H1047R)', 'IC50', '1000 to 10000 nM'),
  ('[2H]c1nc2cnc(-c3cc(NC(=O)c4cc(F)cc(C(F)(F)F)c4)c4c(c3)C(=O)N[C@@H]4c3cc(F)ccc3Cl)cn2n1 [Compound I-2068]', 'H1047R PIK3CA enzyme (Homo sapiens, UniProt P42336, H1047R)', 'IC50', '1000 to 10000 nM'),
  ('Cc1ccccc1C1NS(=O)(=O)c2cccc(NC(=O)c3cc(F)cc(C(F)(F)F)c3)c21 (stereo not shown) [Compound I-535]', 'H1047R PIK3CA enzyme (Homo sapiens, UniProt P42336, H1047R)', 'IC50', '1000 to 10000 nM'),
  ('CS(=O)(=O)c1cc(NC(=O)c2cc(F)cc(C(F)(F)F)c2)c2c(c1)C(=O)NC2c1cc(F)ccc1Cl (stereo not shown) [Compound I-1276]', 'H1047R PIK3CA enzyme (Homo sapiens, UniProt P42336, H1047R)', 'IC50', '≤ 100 nM'),
  ('O=C1N[C@H](c2cc(F)ccc2Cl)c2c(NC(=O)N3C[C@](O)(C(F)(F)F)c4cc(F)ccc43)cc(N3CCCC3=O)cc21 (single isomer, unassigned) [Compound I-2666]', 'H1047R PIK3CA enzyme (Homo sapiens, UniProt P42336, H1047R)', 'IC50', '1000 to 10000 nM'),
  ('O=C1N[C@H](c2cc(F)ccc2Cl)c2c(NC(=O)N3C[C@H](O)c4c3ccc(F)c4F)cccc21 (single isomer, unassigned) [Compound I-2310]', 'H1047R PIK3CA enzyme (Homo sapiens, UniProt P42336, H1047R)', 'IC50', '≤ 100 nM');
